SYSTEM UNDER TEST: hA3AR (Homo sapiens)
TEST DESCRIPTION: Radioligand binding competition, [3H]NECA, membranes from HeLa-A3 cells
CONDITION LABEL: displacement of specific [3H]NECA binding in human HeLa cells, n = 3; read-out: Ki hA3

# COMPOUND, Ki (µM)
rows = [
    ("Nc1nc(NCCc2ccc(O)cc2)nc2nc(-c3ccco3)nn12 [ZM241385, reference compound]", 0.863),
]

====

TEST DESCRIPTION: Human microsomal stability
Format: in vitro ADME
CONDITION LABEL: human, human microsomes, pH 7.4; read-out: microsomal stability t1/2
Given measured half-life at 1 h, output rule met if it is greater than or equal to 30 min and rule not met if not.

# COMPOUND, ASSIGNED CLASS
measured = [
    ("CC1=C(C(=O)OC(C)C)C(c2ccco2)n2c(nc3cc(Br)ccc32)N1 (centres unmarked) [16r]", "rule met"),
    ("CC1=C(C(=O)OC(C)C)C(c2cocn2)n2c(nc3cc(F)ccc32)N1 (centres unmarked) [18b]", "rule met"),
    ("CC1=C(C(=O)OC(C)C)C(c2ccco2)n2c(nc3cc(Cl)ccc32)N1 (centres unmarked) [16j]", "rule not met"),
    ("CC1=C(C(=O)OC(C)C)C(c2ccco2)n2c(nc3cc(F)c(F)cc32)N1 (centres unmarked) [14b]", "rule not met"),
    ("CC1=C(C(=O)OC(C)C)C(c2ccco2)n2c(nc3cc(F)ccc32)N1 (centres unmarked) [16b]", "rule not met"),
    ("C[C@]12CC[C@H]3[C@@H](CCC4=CC(=O)CC[C@@]43C)[C@@H]1CC[C@@H]2O [testosterone, reference compound]", "rule not met"),
    ("CC1=C(C(=O)OC(C)C)C(c2ccco2)n2c(nc3ccc(Cl)cc32)N1 (centres unmarked) [15j]", "rule not met"),
    ("CC1=C(C(=O)OC(C)C)C(c2ccoc2)n2c(nc3cc(Cl)ccc32)N1 (centres unmarked) [16l]", "rule met"),
]

====

SYSTEM UNDER TEST: UniProt:P30542
Sequence (P30542 whole entry): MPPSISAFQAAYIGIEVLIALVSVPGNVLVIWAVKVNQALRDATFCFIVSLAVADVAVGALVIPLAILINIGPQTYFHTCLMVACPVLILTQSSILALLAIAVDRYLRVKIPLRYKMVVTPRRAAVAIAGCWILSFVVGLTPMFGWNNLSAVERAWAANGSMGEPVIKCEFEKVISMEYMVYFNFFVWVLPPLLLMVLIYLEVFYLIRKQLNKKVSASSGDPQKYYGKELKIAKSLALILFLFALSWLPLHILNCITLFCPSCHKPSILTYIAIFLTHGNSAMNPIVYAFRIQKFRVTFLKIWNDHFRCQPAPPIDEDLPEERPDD
TEST DESCRIPTION: Radioligand binding competition, [3H]DPCPX, membranes from CHO-A1 cells
CONDITION LABEL: displacement of specific [3H]DPCPX binding in human CHO cells, n = 3; read-out: Ki hA1

# COMPOUND, VALUE UNITS, Ki
records = [
    ("CC1=C(C(=O)OC(C)C)C(c2ccco2)n2c(nc3ccc(Cl)cc32)N1 (centres unmarked) [15j]", "nM", 667),
    ("CCOC(=O)C1=C(C)Nc2nc3ccc(Cl)cc3n2C1c1cocn1 (centres unmarked) [17c]", "nM", 227),
]

====

SYSTEM UNDER TEST: hA2AAR (Homo sapiens, UniProt P29274)
Construct: expressed in transfected cells; host or cells: HeLa (HeLa-A2A) cell membranes
Sequence (P29274 whole entry): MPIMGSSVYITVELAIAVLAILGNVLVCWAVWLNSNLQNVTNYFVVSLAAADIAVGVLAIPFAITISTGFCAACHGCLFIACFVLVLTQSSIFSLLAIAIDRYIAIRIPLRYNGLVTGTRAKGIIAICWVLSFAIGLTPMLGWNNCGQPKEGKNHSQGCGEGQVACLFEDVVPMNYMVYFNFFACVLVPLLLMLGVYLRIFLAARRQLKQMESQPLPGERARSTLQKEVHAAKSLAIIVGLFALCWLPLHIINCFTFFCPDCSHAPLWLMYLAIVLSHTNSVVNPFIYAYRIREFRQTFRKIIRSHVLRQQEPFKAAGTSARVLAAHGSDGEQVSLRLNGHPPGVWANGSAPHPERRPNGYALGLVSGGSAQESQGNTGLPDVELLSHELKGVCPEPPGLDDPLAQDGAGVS
TEST DESCRIPTION: Radioligand binding competition, [3H]ZM241385, membranes from HeLa-A2A cells
CONDITION LABEL: 1 μM, [3H]ZM241385, human HeLa cells, n = 2
So basically, if % at 1 μM hA2A (percentage displacement of specific binding) comes in under 9% it's fulfilled, and if it's 9% or more it's not fulfilled.

# MOLECULE, ASSIGNED CLASS
records = [
    ("CCOC(=O)C1=C(C)Nc2nc3cc(Cl)ccc3n2[C@H]1c1cocn1 [(R)-18c]", "not fulfilled"),
    ("CCOC(=O)C1=C(C)Nc2nc3ccc(Cl)cc3n2C1c1cocn1 (centres unmarked) [17c]", "not fulfilled"),
    ("CC1=C(C(=O)OC(C)C)C(c2cccs2)n2c(nc3cc(F)c(F)cc32)N1 (centres unmarked) [14f]", "fulfilled"),
    ("CC1=C(C(=O)OC(C)C)C(c2ccsc2)n2c(nc3cc(Br)c(Br)cc32)N1 (centres unmarked) [14x]", "fulfilled"),
    ("CCOC(=O)C1=C(C)Nc2nc3ccc(Br)cc3n2C1c1ccoc1 (centres unmarked) [15s]", "fulfilled"),
    ("CCOC(=O)C1=C(C)Nc2nc3ccc(Cl)cc3n2C1c1ccsc1 (centres unmarked) [15o]", "fulfilled"),
    ("CCOC(=O)C1=C(C)Nc2nc3cc(Cl)c(Cl)cc3n2C1c1ccco1 (centres unmarked) [14i]", "fulfilled"),
    ("CCOC(=O)C1=C(C)Nc2nc3cc(Cl)ccc3n2C1c1cccs1 (centres unmarked) [16m]", "fulfilled"),
    ("CC1=C(C(=O)OC(C)C)C(c2ccoc2)n2c(nc3cc(F)c(F)cc32)N1 (centres unmarked) [14d]", "not fulfilled"),
    ("CCOC(=O)C1=C(C)Nc2nc3cc(F)ccc3n2C1c1cccs1 (centres unmarked) [16e]", "fulfilled"),
    ("CCOC(=O)C1=C(C)Nc2nc3cc(Cl)c(Cl)cc3n2C1c1ccoc1 (centres unmarked) [14k]", "not fulfilled"),
    ("CCOC(=O)C1=C(C)Nc2nc3cc(Cl)ccc3n2C1c1ccoc1 (centres unmarked) [16k]", "not fulfilled"),
    ("CCOC(=O)C1=C(C)Nc2nc3ccc(F)cc3n2C1c1ccsc1 (centres unmarked) [15g]", "fulfilled"),
    ("CC1=C(C(=O)OC(C)C)C(c2ccoc2)n2c(nc3ccc(F)cc32)N1 (centres unmarked) [15d]", "not fulfilled"),
    ("CCOC(=O)C1=C(C)Nc2nc3cc(Br)ccc3n2[C@H]1c1ccoc1 [(S)-16s]", "not fulfilled"),
    ("CCOC(=O)C1=C(C)Nc2nc3ccc(F)cc3n2C1c1ccoc1 (centres unmarked) [15c]", "not fulfilled"),
    ("CC1=C(C(=O)OC(C)C)C(c2ccsc2)n2c(nc3cc(Cl)c(Cl)cc32)N1 (centres unmarked) [14p]", "fulfilled"),
    ("CCOC(=O)C1=C(C)Nc2nc3cc(Cl)c(Cl)cc3n2C1c1cccs1 (centres unmarked) [14m]", "fulfilled"),
    ("CCOC(=O)C1=C(C)Nc2nc3cc(F)ccc3n2C1c1ccco1 (centres unmarked) [16a]", "not fulfilled"),
]

====

TEST DESCRIPTION: Human microsomal stability
Assay type: in vitro ADME
CONDITION LABEL: human, human microsomes, pH 7.4; read-out: microsomal stability Clint (intrinsic clearance)

# COMPOUND, VALUE UNITS, microsomal CLint at 1 h
data = [
    ("CC1=C(C(=O)OC(C)C)C(c2ccco2)n2c(nc3cc(Br)ccc32)N1 (stereo not shown) [16r]", "µL/min/mg", 14.2),
    ("CC1=C(C(=O)OC(C)C)C(c2ccco2)n2c(nc3cc(F)ccc32)N1 (stereo not shown) [16b]", "µL/min/mg", 20.1),
    ("CC1=C(C(=O)OC(C)C)C(c2ccco2)n2c(nc3cc(F)c(F)cc32)N1 (stereo not shown) [14b]", "µL/min/mg", 21.6),
    ("CC1=C(C(=O)OC(C)C)C(c2ccco2)n2c(nc3cc(Cl)ccc32)N1 (stereo not shown) [16j]", "µL/min/mg", 18.6),
    ("CC1=C(C(=O)OC(C)C)C(c2cocn2)n2c(nc3cc(F)ccc32)N1 (stereo not shown) [18b]", "µL/min/mg", 12.8),
    ("CC1=C(C(=O)OC(C)C)C(c2ccoc2)n2c(nc3cc(Cl)ccc32)N1 (stereo not shown) [16l]", "µL/min/mg", 11.7),
    ("CC1=C(C(=O)OC(C)C)C(c2ccco2)n2c(nc3ccc(Cl)cc32)N1 (stereo not shown) [15j]", "µL/min/mg", 26.4),
]

====

Measured % at 1 μM hA3 (percentage displacement of specific binding) of individual entries
SYSTEM UNDER TEST: hA3AR (Homo sapiens, UniProt P0DMS8)
Construct: expressed in transfected cells; host or cells: HeLa (HeLa-A3) cell membranes
Sequence (P0DMS8 1-318): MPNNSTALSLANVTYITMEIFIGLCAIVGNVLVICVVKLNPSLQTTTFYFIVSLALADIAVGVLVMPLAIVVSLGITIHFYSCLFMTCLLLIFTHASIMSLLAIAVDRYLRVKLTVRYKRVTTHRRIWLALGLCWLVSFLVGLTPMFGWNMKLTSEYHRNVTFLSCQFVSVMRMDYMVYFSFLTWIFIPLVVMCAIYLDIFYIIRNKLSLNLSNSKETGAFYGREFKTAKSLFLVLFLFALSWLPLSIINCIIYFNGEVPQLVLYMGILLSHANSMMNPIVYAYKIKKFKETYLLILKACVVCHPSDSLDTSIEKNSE
TEST DESCRIPTION: Radioligand binding competition, [3H]NECA, membranes from HeLa-A3 cells
CONDITION LABEL: 1 μM, [3H]NECA, human HeLa cells, n = 2
ASSAY ENDPOINT: % at 1 μM hA3 (percentage displacement of specific binding) (%)

# MOLECULE, VALUE UNITS, RESULT NUMBER
records = [
    ("CCOC(=O)C1=C(C)Nc2nc3ccc(Br)cc3n2C1c1ccsc1 (centres unmarked) [15w]", "%", 3),
    ("CCOC(=O)C1=C(C)Nc2nc3cc(F)c(F)cc3n2C1c1ccco1 (centres unmarked) [14a]", "%", 2),
    ("CC1=C(C(=O)OC(C)C)[C@@H](c2ccoc2)n2c(nc3cc(Cl)ccc32)N1 [(R)-16l]", "%", 24),
    ("CC1=C(C(=O)OC(C)C)[C@H](c2ccco2)n2c(nc3cc(Br)ccc32)N1 [(R)-16r]", "%", 2),
    ("CC1=C(C(=O)OC(C)C)C(c2ccoc2)n2c(nc3cc(F)c(F)cc32)N1 (centres unmarked) [14d]", "%", 20),
]
